Listed here are molecules together with their documented P, ratio of fluorescence quantum efficiency, BSA.
# TARGET_UNDER_TEST: BSA (Bos taurus)
# EXPERIMENTAL_DETAILS: BSA fluorescence quenching titration
# Assay type: binding, bovine
# TEST_CONTEXT: F/F0 vs 1/[BSA]
Please state the value as a number alone, without comment.

Some molecules with known P, ratio of fluorescence quantum efficiency, BSA results, for comparison:
Quick note, P, ratio of fluorescence quantum efficiency, BSA for [Mn+2].[O-]c1ccccc1N=Cc1ccc(N2CCOCC2)cc1.[O-]c1ccccc1N=Cc1ccc(N2CCOCC2)cc1.c1ccc(-c2ccccn2)nc1 landed at 0.287

Quick note, P, ratio of fluorescence quantum efficiency, BSA for [Ni+2].[O-]c1ccccc1N=Cc1ccc(N2CCOCC2)cc1.[O-]c1ccccc1N=Cc1ccc(N2CCOCC2)cc1.c1ccc(-c2ccccn2)nc1 landed at 0.348

Quick note, P, ratio of fluorescence quantum efficiency, BSA for [Co+2].[O-]c1ccccc1N=Cc1ccc(N2CCOCC2)cc1.[O-]c1ccccc1N=Cc1ccc(N2CCOCC2)cc1.c1ccc(-c2ccccn2)nc1 landed at 0.385

Field: next molecule
Quick note, P, ratio of fluorescence quantum efficiency, BSA for Oc1ccccc1N=Cc1ccc(N2CCOCC2)cc1 landed at 0.464
